Origin of the recorded values: patent US20210332036A1

Some compounds, each annotated with its measured AUC(0-t).
Assay: PK parameters, IV dosing (plasma and brain exposure)
Type: in vivo
Parameters: concentration or dose not given beside the values
Details: Mouse IV, plasma; read-out: AUC(last) Plasma

Worked examples, 4 compounds total:
compound: COCCOc1ccc(C(=O)Nc2cc(-c3cccs3)ccc2N)nc1 [Compound 004]
AUC(0-t): 700 to 800 ng·h/mL
//
compound: Nc1ccc(-c2ccoc2)cc1NC(=O)c1ncc(N2CCNCC2)cn1 [Compound 015]
AUC(0-t): 500 to 600 ng·h/mL
//
compound: Nc1ccc(-c2cccs2)cc1NC(=O)c1ncc(N2CCNCC2)cn1 [Compound 007]
AUC(0-t): 400 to 500 ng·h/mL
//
compound: COCCOc1ccc(C(=O)Nc2cc(-c3cccs3)ccc2N)nn1 [Compound 008]
AUC(0-t): 600 to 700 ng·h/mL

Reported AUC(0-t) for Nc1ccc(-c2ccccc2)cc1NC(=O)c1ncc(NCCOCc2cccnc2)cn1 [Compound 016] was 300 to 400 ng·h/mL

###

Assay: PK parameters, IV dosing (plasma and brain exposure)
Assay type: in vivo
Parameters: concentration or dose not given beside the values
Settings: Mouse IV, plasma; read-out: AUC(last) Plasma
Some molecules, each annotated with its measured AUC(0-t).

Worked examples, 3 molecules total:
smiles-entry: CN1CCN(c2cnc(C(=O)Nc3cc(-c4cccs4)ccc3N)nc2)CC1
meas-value: 200 to 300 ng·h/mL

smiles-entry: Nc1ccc(-c2cccs2)cc1NC(=O)c1cnc(N2CCNCC2)cn1
meas-value: 600 to 700 ng·h/mL

smiles-entry: CNS(=O)(=O)Oc1ccc(-c2ccc(N)c(NC(=O)c3ccc(N4CCN(C)CC4)cn3)c2)cc1
meas-value: 200 to 300 ng·h/mL

Field: next molecule
Reported AUC(0-t) for Nc1ccc(-c2cccs2)cc1NC(=O)c1ccc(OCCO)cn1 was 600 to 700 ng·h/mL

###

Some molecules, each annotated with its measured AUC(0-t).
Test: PK parameters, IV dosing (plasma and brain exposure)
Assay type: in vivo
Set-up: concentration or dose not given beside the values
Settings: Mouse IV, plasma; read-out: AUC(last) Plasma

Reported AUC(0-t) for CC(=O)N1CCN(c2ccc(C(=O)Nc3cc(-c4cccs4)ccc3N)nc2)CC1 was 500 to 600 ng·h/mL

Reported AUC(0-t) for Nc1ccc(-c2cccs2)cc1NC(=O)c1ccc(NC2CCN(C(=O)N3CCNCC3)CC2)cn1 was 1500 to 1600 ng·h/mL

Reported AUC(0-t) for Nc1ccc(-c2ccccc2)cc1NC(=O)c1ccc(N2CCNCC2)nn1 was 1000 to 1100 ng·h/mL

Reported AUC(0-t) for Nc1cc(F)c(-c2cccs2)cc1NC(=O)c1ccc(N2CCNCC2)cn1 was 400 to 500 ng·h/mL

###

Some compounds, each annotated with its measured Kp.
Test: PK parameters, IV dosing (plasma and brain exposure)
Assay type: in vivo
Settings: brain/plasma; Mouse IV; read-out: Brain AUC/Plasma AUC

Worked examples, 8 compounds total:
smiles-entry: CNS(=O)(=O)Oc1ccc(-c2ccc(N)c(NC(=O)c3ccc(N4CCN(C)CC4)cn3)c2)cc1
Kp: 0.1 to 1.5

smiles-entry: Nc1ccc(-c2ccccc2)cc1NC(=O)c1ncc(NCCOCc2cccnc2)cn1
Kp: 0.01 to 0.1

smiles-entry: Nc1ccc(-c2cccs2)cc1NC(=O)c1ccc(OCCO)cn1
Kp: 0.8 to 1.2

smiles-entry: CN1CCN(c2cnc(C(=O)Nc3cc(-c4cccs4)ccc3N)nc2)CC1
Kp: 2 to 4

smiles-entry: COCCOc1ccc(C(=O)Nc2cc(-c3cccs3)ccc2N)nn1
Kp: 0.1 to 1.5

smiles-entry: CC(=O)N1CCN(c2ccc(C(=O)Nc3cc(-c4cccs4)ccc3N)nc2)CC1
Kp: 0.1 to 1.5

smiles-entry: COCCOc1ccc(C(=O)Nc2cc(-c3cccs3)ccc2N)nc1
Kp: 0.1 to 1.5

smiles-entry: Nc1ccc(-c2ccccc2)cc1NC(=O)c1ccc(N2CCNCC2)nn1
Kp: 1 to 5

Reported Kp for Cc1ccc(-c2ccc(N)c(NC(=O)c3ccc(N4CCNCC4)cn3)c2)cc1 was 10 to 15

Reported Kp for Nc1ccc(-c2cccs2)cc1NC(=O)c1ccc(OC[C@H](O)CO)cn1 was 0.1 to 0.3

Reported Kp for Nc1ccc(-c2cccs2)cc1NC(=O)c1ccc(NC2CCN(C(=O)N3CCNCC3)CC2)cn1 was 0.05 to 0.1

Reported Kp for Nc1ccc(-c2ccoc2)cc1NC(=O)c1ncc(N2CCNCC2)cn1 was 0.1 to 1.5

Reported Kp for Nc1ccc(-c2cccs2)cc1NC(=O)c1ncc(N2CCNCC2)cn1 was 0.01 to 0.1

Reported Kp for Nc1ccc(-c2cncs2)cc1NC(=O)c1ccc(N2CCNCC2)cn1 was 0.1 to 1.5

Reported Kp for Nc1cc(F)c(-c2cccs2)cc1NC(=O)c1ccc(N2CCNCC2)cn1 was 20 to 25

Reported Kp for Nc1ccc(-c2ccccc2)cc1NC(=O)c1ncc(N2CCNCC2)cn1 was 0.8 to 1.5
